test system: Leishmania major; assay: Antileishmanial activity against Leishmania major IR-173 promastigotes assessed as inhibition of parasite growth incubated for 72 hrs by resazurin dye based assay; format: functional, organism-based; conditions: IR-173, 72 h
Recorded measurements of IC50, one per entry

{"Molecule": "COc1ccc2nc3cc(Cl)ccc3c(N3CCN(CCO[C@H]4O[C@@H]5O[C@@]6(C)CC[C@H]7[C@H](C)CC[C@@H]([C@H]4C)[C@@]57OO6)C(C)C3)c2c1 (stereo partly drawn)", "Measurement Units": "µM", "Inequality Symbol": "=", "IC50": 0.69}
{"Molecule": "C[C@@H]1CC[C@H]2C(C)(COC(=O)c3ccco3)O[C@@H]3O[C@@]4(C)CC[C@@H]1[C@]32OO4 (stereo partly drawn)", "Measurement Units": "µM", "Inequality Symbol": ">", "IC50": 100}
{"Molecule": "C[C@@H]1CC[C@H]2C(C)(COC(=O)c3ccc([N+](=O)[O-])cc3)O[C@@H]3O[C@@]4(C)CC[C@@H]1[C@]32OO4 (stereo partly drawn)", "Measurement Units": "µM", "Inequality Symbol": "=", "IC50": 5.71}
